B1: Hairpin Ribozyme (parent)
chain: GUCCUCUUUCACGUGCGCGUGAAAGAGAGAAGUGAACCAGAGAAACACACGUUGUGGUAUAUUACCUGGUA

variants of: B1; assay: self-cleavage, relative activity (ratio to wild type); higher = more cleavage; co-transcriptional
parameter: self-cleavage
Just the number.

{"mutant_code": "U5C C65A", "parameter": "self-cleavage", "val": 0.511}
{"mutant_code": "U14G G40C", "parameter": "self-cleavage", "val": 0.111}
{"mutant_code": "G1A G25A", "parameter": "self-cleavage", "val": 0.245}
{"mutant_code": "G51C G69U", "parameter": "self-cleavage", "val": 0.224}
{"mutant_code": "C18G G29A", "parameter": "self-cleavage", "val": 0.133}
{"mutant_code": "U33G G54C", "parameter": "self-cleavage", "val": 0.145}
{"mutant_code": "A26U G29A", "parameter": "self-cleavage", "val": 0.198}
{"mutant_code": "U55C A61U", "parameter": "self-cleavage", "val": 0.281}

Return value of self-cleavage for input G27C C37U , no commentary. 0.0764

Return value of self-cleavage for input A64G C66G , no commentary. 0.226

Return value of self-cleavage for input C6A U7C , no commentary. 0.609

Return value of self-cleavage for input G29C A59C , no commentary. 0.205

Return value of self-cleavage for input A22U U67G , no commentary. 0.295
